Several reports have described IC50 for Prothrombin (Homo sapiens); a selection of those results is presented here.
Reported IC50 maps to class as: class 0: < 0.05 µM; class 1: ≥ 0.05 µM and < 40 µM; class 2: ≥ 40 µM

>  <molecule>
CC(=N)N1CCC(Oc2ccc3[nH]c(=O)n(Cc4ccc5ccc(C(=N)N)cc5c4)c3c2)CC1

>  <target.under.test>
Prothrombin (Homo sapiens)

>  <label.value>
class 2

$$$$
>  <molecule>
CC/C=C/C(=O)Oc1ccc2cc(C(=N)N)sc2c1

>  <target.under.test>
Prothrombin (Homo sapiens)

>  <label.value>
class 0

$$$$
>  <molecule>
CCOC(=O)CN1CCC[C@@H]1C(=O)N1CCC[C@H]1CCc1cc2ccc(C(=N)N)cc2n1CC

>  <target.under.test>
Prothrombin (Homo sapiens)

>  <label.value>
class 0

$$$$
>  <molecule>
Nc1nc(C2CCCO2)n[nH]1 (stereo not shown)

>  <target.under.test>
Prothrombin (Homo sapiens)

>  <label.value>
class 2

$$$$
>  <molecule>
N=C(N)c1cn(CC(=O)Nc2ccc(C(=O)O)cc2)c2c(/C=C/C(=O)N[C@H](C(=O)O)c3ccccc3)cccc12

>  <target.under.test>
Prothrombin (Homo sapiens)

>  <label.value>
class 2

$$$$
>  <molecule>
Cc1ncc(CO)c(CNc2ccc(-c3ccccc3S(N)(=O)=O)cc2F)c1OCc1ccc(C(=N)N)cc1

>  <target.under.test>
Prothrombin (Homo sapiens)

>  <label.value>
class 2

$$$$
>  <molecule>
N=C(N)c1ccc2ccc(CN3C(=O)COc4ccc(-c5ccccc5S(N)(=O)=O)cc43)cc2c1

>  <target.under.test>
Prothrombin (Homo sapiens)

>  <label.value>
class 1

$$$$
>  <molecule>
CC(=N)N1CCC(Oc2ccc3c(ccc(=O)n3Cc3ccc(-c4cccc(C(=N)N)c4)cc3)c2)CC1

>  <target.under.test>
Prothrombin (Homo sapiens)

>  <label.value>
class 2

$$$$
>  <molecule>
Cc1ncc(CNc2ccc(-c3ccccc3S(N)(=O)=O)cn2)c(CO)c1OCc1cccc(C(=N)N)c1

>  <target.under.test>
Prothrombin (Homo sapiens)

>  <label.value>
class 2

$$$$
>  <molecule>
CC(C)(C)OC(=O)C(Cc1ccc2ccc(C(=N)N)cc2c1)N1CCc2cc(OC3CCN(C(=N)N)CC3)ccc2C1=O (stereo not shown)

>  <target.under.test>
Prothrombin (Homo sapiens)

>  <label.value>
class 2

$$$$
>  <molecule>
N=C(N)N1CCC[C@@H](C[C@H](NC(=O)[C@@H]2CC[C@H]3CN(C(=O)CCc4ccccc4)CC(=O)N32)C(=O)c2nccs2)C1

>  <target.under.test>
Prothrombin (Homo sapiens)

>  <label.value>
class 0

$$$$
>  <molecule>
N=C(N)c1ccc2ccc(CN3C(=O)COc4cc(NS(=O)(=O)c5ccccc5)ccc43)cc2c1

>  <target.under.test>
Prothrombin (Homo sapiens)

>  <label.value>
class 1

$$$$
>  <molecule>
COCc1nn(Cc2ccc(Cn3cc(F)ccc3=O)cc2)cc1C(=O)NCc1c(C#N)ccc(OC)c1F

>  <target.under.test>
Prothrombin (Homo sapiens)

>  <label.value>
class 2

$$$$
>  <molecule>
Cc1cccc(CN2CCC(c3cc(NCc4ccc(Cl)s4)[nH]n3)CC2)n1

>  <target.under.test>
Prothrombin (Homo sapiens)

>  <label.value>
class 2

$$$$
>  <molecule>
O=c1[nH]cc(Br)cc1-c1cc(NCc2ccc(Cl)s2)[nH]n1

>  <target.under.test>
Prothrombin (Homo sapiens)

>  <label.value>
class 2

$$$$
>  <molecule>
N=C(N)c1cccc(-c2cccc(Cn3c(=O)ccc4cc(OC5CCNCC5)ccc43)c2)c1

>  <target.under.test>
Prothrombin (Homo sapiens)

>  <label.value>
class 1

$$$$
>  <molecule>
CCn1c(CCC2CCCN2C(=O)C2CCCN2C(CC(=O)O)C(=O)O)cc2ccc(C(=N)N)cc21 (stereo not shown)

>  <target.under.test>
Prothrombin (Homo sapiens)

>  <label.value>
class 0

$$$$
>  <molecule>
CCn1c(CC[C@@H]2CCCN2C(=O)[C@H]2CCCN2C(=O)[C@@H](N)C(C)C)cc2ccc(C(=N)N)cc21

>  <target.under.test>
Prothrombin (Homo sapiens)

>  <label.value>
class 0

$$$$
>  <molecule>
CC(=N)N1CCC(Oc2ccc3c(c2)C=CS(=O)(=O)N3Cc2ccc3ccc(C(=N)N)cc3c2)CC1

>  <target.under.test>
Prothrombin (Homo sapiens)

>  <label.value>
class 2

$$$$
>  <molecule>
N=C(N)c1cccc(-c2ccccc2Cn2c(=O)ccc3cc(OC4CCNCC4)ccc32)c1

>  <target.under.test>
Prothrombin (Homo sapiens)

>  <label.value>
class 1

$$$$

###

A compilation of IC50 values for Prothrombin (Homo sapiens) from the published literature.

>  <molecule>
Clc1ccc(CNc2nc(C3CCCO3)n[nH]2)s1 (centres unmarked)

>  <IC50>
≥ 100 µM

$$$$
>  <molecule>
C=CCOC(=O)N1CCC(c2n[nH]c(NCc3ccc(Cl)s3)c2C#N)CC1

>  <IC50>
1 to 10 µM

$$$$
>  <molecule>
COC(=O)c1cc(COc2cccnc2N)cc(-c2cccc(C(=N)N)c2)c1

>  <IC50>
> 100 µM

$$$$
>  <molecule>
Cc1cc(CN2C(=O)COc3cc(-c4ccccc4S(N)(=O)=O)ccc32)n(-c2cccc(C(=N)N)c2)n1

>  <IC50>
> 11 µM

$$$$
>  <molecule>
N=C(N)c1ccc(CNC(=O)[C@@H]2CCN2C(=O)[C@H](O)c2cc(Cl)cc(OC(F)F)c2)cc1F

>  <IC50>
< 0.15 µM

$$$$
>  <molecule>
CC(C)(C)C(=O)n1nc(C2(C)CCNC2=O)cc1NCc1ccc(Cl)s1 (centres unmarked)

>  <IC50>
< 0.1 µM

$$$$
>  <molecule>
CCN(CC)[C@@H](C)C(=O)N[C@@H](Cc1ccc(F)c(F)c1)C(=O)NCc1ccc(N)nc1

>  <IC50>
> 10 µM

$$$$
>  <molecule>
CC(=N)N1CCC(Oc2ccc(N(Cc3cc(C)n(-c4cccc(C(=N)N)c4)n3)S(C)(=O)=O)cc2)CC1

>  <IC50>
> 11 µM

$$$$
>  <molecule>
CC(=N)N1CCC(Oc2ccc3c(c2)/C(=C/c2ccccc2)C(=O)N3Cc2ccc3ccc(C(=N)N)cc3c2)CC1

>  <IC50>
28 µM

$$$$
>  <molecule>
C=CCOC(=O)N1C2CCC1CC(c1cc(NCc3ccc(Cl)s3)[nH]n1)C2 (centres unmarked)

>  <IC50>
10 to 100 µM

$$$$
>  <molecule>
O=C(N1CCOCC1)N1CCC(c2cc(NCc3ccc(Cl)s3)n(C(=O)N3CCOCC3)n2)CC1

>  <IC50>
1 to 10 µM

$$$$
>  <molecule>
COC(=O)C(Cc1cccc(C(=N)N)c1)N1CCc2cc(OC3CCN(C(C)=N)CC3)ccc2C1=O (centres unmarked)

>  <IC50>
393 µM

$$$$
>  <molecule>
Nc1cccc(-c2c(Cl)nc(NC3CCC3)c(=O)n2CC(=O)NCc2ccc(-c3n[nH]c(=O)[nH]3)cc2)c1

>  <IC50>
> 30 µM

$$$$
>  <molecule>
C=CCOC(=O)N1C2CCC1CC(c1cc(NCc3ccc(Cl)s3)n(C(=O)C(C)(C)C)n1)C2 (centres unmarked)

>  <IC50>
< 0.1 µM

$$$$
>  <molecule>
N=C(N)NCCCCCNC(=O)c1cc(NS(=O)(=O)Cc2ccccc2)ccc1Sc1ccccc1

>  <IC50>
> 100 µM

$$$$
>  <molecule>
COc1ccc(C(=O)n2nc(C3CCOC3)nc2NCc2ccc(Cl)s2)c(OC)c1 (centres unmarked)

>  <IC50>
≤ 0.1 µM

$$$$
>  <molecule>
O=C(c1ccoc1)n1nc(-c2ccccc2)c(F)c1NCc1ccc(Cl)s1

>  <IC50>
< 0.1 µM

$$$$
>  <molecule>
C=CCOC(=O)N1CCC(c2n[nH]c(NCc3ccc(Cl)s3)c2C)CC1

>  <IC50>
> 100 µM

$$$$
>  <molecule>
COc1ccccc1C(=O)n1nc(C2CCCN2)cc1NCc1ccc(Cl)s1 (centres unmarked)

>  <IC50>
0.1 to 1 µM

$$$$
>  <molecule>
NCCCCC(NC(=O)CN1CCCCC(NS(=O)(=O)Cc2ccccc2)C1=O)C(=O)C(=O)O (centres unmarked)

>  <IC50>
0.135 µM

$$$$
>  <molecule>
O=C(NCc1ccccc1F)C1CCc2cnc(NCC(F)(F)c3cccc[n+]3[O-])c(=O)n21 (racemic)

>  <IC50>
0.028 µM

$$$$
>  <molecule>
Clc1ccc(CNc2cc(C3CCN(Cc4cccnc4)CC3)n[nH]2)s1

>  <IC50>
> 100 µM

$$$$
>  <molecule>
O=C(c1cccc2c1OCCO2)n1nc(C2CCOCC2)c(F)c1NCc1ccc(Cl)s1

>  <IC50>
< 0.1 µM

$$$$
>  <molecule>
O=C(c1cccc2c1OCCO2)n1nc(C2CCOC2)nc1NCc1ccc(Cl)s1 (centres unmarked)

>  <IC50>
≤ 0.1 µM

$$$$
>  <molecule>
CCc1c(N2CCOCC2=O)cccc1S(=O)(=O)N[C@@H](CNC(=O)c1csc(Cl)c1)C(=O)N1CCOC[C@@H]1C

>  <IC50>
0.25 µM

$$$$
>  <molecule>
C=CCOC(=O)N1CCN(C(=O)CN2CCOCC2)CC1c1cc(NCc2ccc(Cl)s2)[nH]n1 (centres unmarked)

>  <IC50>
> 100 µM

$$$$
>  <molecule>
COC(=O)c1ccc(-c2cccc(O)c2)cc1-n1cc(C(=N)N)c2ccccc21

>  <IC50>
43.7 µM

$$$$
>  <molecule>
CC1(C)C2CCC1(CS(=O)(=O)NC(CC1CCCCC1)C(=O)N1CCCCC1CCOc1ccc3c(N)nccc3c1)C(=O)C2 (centres unmarked)

>  <IC50>
0.41 µM

$$$$
>  <molecule>
CS(=O)(=O)N(Cc1ccc2ccc(C(=N)N)cc2c1)c1ccc(C(=O)N2CCC[C@H]2C(N)=O)cc1

>  <IC50>
146 µM

$$$$
>  <molecule>
CC1(C(=O)n2nc(-c3ccccc3)c(F)c2NCc2ccc(Cl)s2)CCOCC1

>  <IC50>
< 0.1 µM

$$$$
>  <molecule>
CC(C)Nc1nc(Br)c(-c2cccc(N)c2)n(CC(=O)NCc2ccc(C(=N)N)cc2)c1=O

>  <IC50>
4.68 µM

$$$$
>  <molecule>
N=C(N)c1cc(F)c(CNC(=O)[C@@H]2CCN2C(=O)[C@H](O)c2cc(Cl)cc(OC(F)F)c2)c(F)c1

>  <IC50>
< 0.02 µM

$$$$
